Test system: Escherichia coli TOP10;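 note: peptides expressed intracellularly from a pBAD plasmid library in pooled LB shake-flask culture, induced with 0.3% L-arabinose, DNA abundance read by NGS, three biological replicates, DESeq2 with apeglm shrinkage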
Assay: shrunken log2 fold change of peptide-encoding DNA abundance (4.5 h post-induction vs induction); higher = less antimicrobial activity (less host growth inhibition)
Settings: time post-induction: 4.5 h; library: site-saturation at positions 5, 18, 19, 20
Everything with shrunken log2 fold change lower than 0.05 is False; everything else, including exactly 0.05, is True.

- entry sequence: "RRIRHRPPRLPRPRPRPGHKPRP"
  group: "True"
- entry sequence: "RRIRFRPPRLPRPRPRPPVGPRP"
  group: "True"
- entry sequence: "RRIRTRPPRLPRPRPRPGSQPRP"
  group: "True"
- entry sequence: "RRIRSRPPRLPRPRPRPCWWPRP"
  group: "True"
- entry sequence: "RRIRYRPPRLPRPRPRPPCGPRP"
  group: "False"
- entry sequence: "RRIRDRPPRLPRPRPRPGKHPRP"
  group: "False"
- entry sequence: "RRIRHRPPRLPRPRPRPKELPRP"
  group: "False"
- entry sequence: "RRIRQRPPRLPRPRPRPFYGPRP"
  group: "False"
- entry sequence: "RRIRIRPPRLPRPRPRPGPIPRP"
  group: "False"
- entry sequence: "RRIRKRPPRLPRPRPRPQAKPRP"
  group: "False"
- entry sequence: "RRIRWRPPRLPRPRPRPCFKPRP"
  group: "False"
- entry sequence: "RRIRLRPPRLPRPRPRPEQDPRP"
  group: "False"
- entry sequence: "RRIRYRPPRLPRPRPRPGQRPRP"
  group: "True"
- entry sequence: "RRIRTRPPRLPRPRPRPKPWPRP"
  group: "True"
- entry sequence: "RRIRFRPPRLPRPRPRPPHPPRP"
  group: "True"
